The origin of these recorded values is patent US20250368745A1.

Molecular target: T1, human IL-18BP (human, UniProt O95998 31-194)
T1 construct: UniProt printed as 095998; also called hIL-18BP
T1 sequence: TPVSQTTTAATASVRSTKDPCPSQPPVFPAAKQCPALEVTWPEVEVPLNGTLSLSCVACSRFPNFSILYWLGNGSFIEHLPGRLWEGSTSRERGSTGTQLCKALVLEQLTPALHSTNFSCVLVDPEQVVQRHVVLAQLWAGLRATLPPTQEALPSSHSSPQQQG
Assay: BLI, apparent KD
pKd: −log10 of the molar value.

binder: SA301a HC-H52A (antibody, name in Kabat numbering, V domains shown, IgG1 kappa) VH: QVQLQESGPGLVKPSQTLSLTCTVSGYSITSDYNSHWIRQPPGKGLEWIGYIAYSGSTNYNPSLKSRVTISRDTSKNQFSLKLSSVTAADTAVYYCARNYGSIYVNYFDYWGQGTLVTVSS VL: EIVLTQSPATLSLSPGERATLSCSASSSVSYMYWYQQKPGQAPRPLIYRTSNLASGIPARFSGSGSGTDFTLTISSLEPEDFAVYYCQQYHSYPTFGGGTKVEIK
pKd: 9.62

binder: SA301a HC-Y53F (antibody, name in Kabat numbering, V domains shown, IgG1 kappa) VH: QVQLQESGPGLVKPSQTLSLTCTVSGYSITSDYNSHWIRQPPGKGLEWIGYIHFSGSTNYNPSLKSRVTISRDTSKNQFSLKLSSVTAADTAVYYCARNYGSIYVNYFDYWGQGTLVTVSS VL: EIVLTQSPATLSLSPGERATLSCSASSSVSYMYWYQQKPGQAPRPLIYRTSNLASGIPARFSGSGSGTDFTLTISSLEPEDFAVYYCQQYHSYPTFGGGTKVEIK
pKd: 9.41

binder: SA301a HC-Y53D (antibody, name in Kabat numbering, V domains shown, IgG1 kappa) VH: QVQLQESGPGLVKPSQTLSLTCTVSGYSITSDYNSHWIRQPPGKGLEWIGYIHDSGSTNYNPSLKSRVTISRDTSKNQFSLKLSSVTAADTAVYYCARNYGSIYVNYFDYWGQGTLVTVSS VL: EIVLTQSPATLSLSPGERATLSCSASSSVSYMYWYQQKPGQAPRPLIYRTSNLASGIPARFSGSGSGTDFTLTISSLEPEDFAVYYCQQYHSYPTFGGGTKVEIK
pKd: 8.49
